Data credit: patent US20260055106A1

SYSTEM_TESTED: PARG (Homo sapiens, UniProt Q86W56)
Construct: endogenous in cells; host or cells: U2OS
Sequence (Q86W56 whole entry): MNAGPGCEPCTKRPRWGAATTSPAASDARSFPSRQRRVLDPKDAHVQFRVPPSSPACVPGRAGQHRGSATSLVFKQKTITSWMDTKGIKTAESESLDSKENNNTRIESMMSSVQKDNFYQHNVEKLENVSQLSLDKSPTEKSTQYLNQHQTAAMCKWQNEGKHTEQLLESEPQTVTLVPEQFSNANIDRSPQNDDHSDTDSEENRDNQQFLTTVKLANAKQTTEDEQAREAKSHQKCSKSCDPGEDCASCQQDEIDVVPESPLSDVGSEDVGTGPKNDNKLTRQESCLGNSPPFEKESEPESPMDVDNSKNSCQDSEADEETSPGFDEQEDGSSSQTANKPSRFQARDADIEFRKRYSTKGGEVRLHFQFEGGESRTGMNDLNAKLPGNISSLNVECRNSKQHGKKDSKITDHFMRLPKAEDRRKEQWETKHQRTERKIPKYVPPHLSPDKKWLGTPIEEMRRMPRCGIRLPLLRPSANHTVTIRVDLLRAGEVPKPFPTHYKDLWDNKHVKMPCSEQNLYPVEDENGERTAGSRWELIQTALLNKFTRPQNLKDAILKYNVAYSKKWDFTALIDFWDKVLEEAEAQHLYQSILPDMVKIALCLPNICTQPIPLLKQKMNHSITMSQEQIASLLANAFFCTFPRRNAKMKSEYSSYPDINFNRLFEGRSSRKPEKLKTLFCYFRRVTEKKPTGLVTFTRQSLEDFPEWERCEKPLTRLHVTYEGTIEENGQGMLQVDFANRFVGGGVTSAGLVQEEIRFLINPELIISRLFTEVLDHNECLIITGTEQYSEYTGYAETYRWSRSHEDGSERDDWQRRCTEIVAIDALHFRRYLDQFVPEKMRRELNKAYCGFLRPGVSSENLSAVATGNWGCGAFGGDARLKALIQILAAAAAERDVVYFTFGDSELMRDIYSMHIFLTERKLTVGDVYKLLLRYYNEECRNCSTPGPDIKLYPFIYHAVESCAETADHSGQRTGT
ASSAY_OVERVIEW: Cellular PAR chain assay
Assay type: cell-based
CONDITION_NOTES: U2OS cells; with treatment of TMZ; read-out: EC50 determined in Cellular PAR chain assay (conditions with treatment of TMZ)
Where a name gives a salt, the structure may show the parent alone.
ENDPOINT_LABEL: EC50

[in] Looking for the measured EC50 of C[C@H]1CN(c2cc(S(=O)(=O)NC3(C)CC3)cn3c(-c4nnc(C(F)F)s4)ncc23)C[C@H](C)N1 [Example 1, formate] , can you help?
[out] < 3 nM
